molecular target: Ecdysone receptor (Bombyx mori); assay: Agonist activity against Bombyx mori ecdysone receptor; type: functional
attribute-measured: Fold induction
Give bare numbers.

Example cases with answers are listed next.
1) COc1cccc(C(=O)NC2(C(=O)c3cc(C)cc(C)c3)CCCC2)c1C ... 660
2) O=C(NC1(C(=O)c2ccccc2)CCCC1)c1ccc2c(c1)OCO2 ... 1
3) COc1cccc(C(=O)NC2(C(=O)c3cccc(C)c3)CCCC2)c1C ... 291

Please look at the items below and tell me Fold induction for each one, in order.
1. CCc1ccc(C(=O)NC(C)(C)C(=O)c2ccccc2)cc1
2. COc1cccc(C(=O)NC2(C(=O)c3ccc(C)cc3)CCCC2)c1C

2
21
